Data provenance is paper PMC7820887.

molecular target: T1, soluble extracellular domain of human IL-5 receptor alpha subunit (sIL-5Rα) (human, UniProt Q01344); test: BLI; Octet QKe, 30°C, 1× kinetics buffer in PBS pH 7.4; Ab immobilised on anti-human IgG Fc capture (AHC) biosensors, sIL-5Rα as analyte; association 300 s, dissociation 600 s; 1:1 binding model; conditions: both partners purified
T1 construct: human IL-5 receptor alpha subunit (IL-5Rα, CD125), extracellular domain, residues 21–333; subcloned from a cDNA of residues 1–420; Expressed from the pSecTag2A vector; migrates at ~50 kDa (glycosylated); A biotinylated form (BirA) was used only for library screening; also called sIL-5α; CD125; source: HEK293F, transiently transfected, purified (Ni-NTA); not shown: Avi, C-terminal, kept; His6, …
T1 sequence (Q01344 21-333): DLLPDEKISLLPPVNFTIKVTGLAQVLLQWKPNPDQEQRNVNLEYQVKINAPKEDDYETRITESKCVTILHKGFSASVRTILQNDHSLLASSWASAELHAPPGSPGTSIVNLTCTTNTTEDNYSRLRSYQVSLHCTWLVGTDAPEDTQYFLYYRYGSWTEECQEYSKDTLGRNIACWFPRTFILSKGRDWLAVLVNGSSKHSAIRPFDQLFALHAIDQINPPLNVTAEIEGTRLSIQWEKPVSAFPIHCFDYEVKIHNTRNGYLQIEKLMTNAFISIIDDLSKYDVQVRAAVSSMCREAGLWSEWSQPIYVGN
Readout Label: kon (M⁻¹ s⁻¹)
Kindly provide the numeric value in M⁻¹ s⁻¹ only, without the unit symbol.

Guide cases for kon, answers given:
- Binder: "5R80 (antibody, V domains shown, Human IgG1, kappa; selected as scFab by yeast display from the hu2B7 VH-CDR2 library; source: HEK293F, purified (Protein A)) VH: QVQLVQSGAEVKKPGSSVKVSCKASGYTFTSYWINWVRQAPGQGLEWIGHIYPQKTLTIYNHKFKDKATLTVDKSTNTAYMELSSLRSEDTAVYYCTRDYYGRSYYYAMDYWGQGTTLTVSS VL: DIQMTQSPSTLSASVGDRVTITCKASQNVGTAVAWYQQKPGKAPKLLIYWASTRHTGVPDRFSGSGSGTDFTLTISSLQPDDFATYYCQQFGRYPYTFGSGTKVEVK"
  Readout Label: "kon"
  Assay Value: 22500
- Binder: "benralizumab analogue (antibody, V domains shown, VH of benralizumab, made by DNA synthesis; VL of benralizumab, made by DNA synthesis; Human IgG1, kappa; VH and VL identical to commercial benralizumab but with core fucose on the Fc N-glycan; also called benralizumab analogue (fucosylated human IgG1); source: HEK293F, transiently transfected, purified (Protein A)) VH: EVQLVQSGAEVKKPGASVKVSCKASGYTFTSYVIHWVRQRPGQGLAWMGYINPYNDGTKYNERFKGKVTITSDRSTSTVYMELSSLRSEDTAVYLCGREGIRYYGLLGDYWGQGTLVTVSS VL: DIQMTQSPSSLSASVGDRVTITCGTSEDIINYLNWYQQKPGKAPKLLIYHTSRLQSGVPSRFSGSGSGTDFTLTISSLQPEDFATYYCQQGYTLPYTFGQGTKVEIK"
  Readout Label: "kon"
  Assay Value: 41100

Turning now to a further record.
Documented kon of hu2B7 humanized anti–IL-5Rα antibody (antibody, V domains shown, VH of hu2B7: CDRs of m2B7 grafted on the FRs of daclizumab, mouse ThrH93 (Kabat) kept; VL of hu2B7: CDRs of m2B7 grafted on the FRs of daclizumab, mouse AspL60 and AspL70 kept; Full-length human IgG1, kappa; source: HEK293F, transiently cotransfected, purified (Protein A)) VH: QVQLVQSGAEVKKPGSSVKVSCKASGYTFTSYWINWVRQAPGQGLEWIGHIYPSESYTNYNQKFKDKATLTVDKSTNTAYMELSSLRSEDTAVYYCTRDYYGRSYYYAMDYWGQGTTLTVSS VL: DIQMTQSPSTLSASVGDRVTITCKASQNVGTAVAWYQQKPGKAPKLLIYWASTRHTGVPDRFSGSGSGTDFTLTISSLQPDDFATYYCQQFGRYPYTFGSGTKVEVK : 22200
